System: LTD4 evoked contractions of guinea pig ileum
Experiment: LTD4 antagonism on isolated guinea pig ileum (inhibition of LTD4 evoked ileal contractions, single submaximal LTD4 responses)
Assay type: cell-based, guinea pig (male Hartley)
Conditions: Cavia porcellus, 37° C., five minute exposure to drug, 2-4 concentrations, linear regression interpolation, read-out: -log IC50 (antagonist concentration that produced 50% inhibition of the LTD4 responses) (converted)
observationType: IC50 (nM)

Here is how some compounds turned out for IC50.
CCCc1c(COc2ccc(Cc3nnn(CCCCC(=O)O)n3)cc2)ccc(C(C)=O)c1O | 11.7
CCCc1c(COc2ccc(Cc3nnn(CC(=O)O)n3)cc2)ccc(C(C)=O)c1O | 28.2
CCCc1c(COc2ccc(Cc3nnnn3Cc3nnn[nH]3)cc2)ccc(C(C)=O)c1O | 17.4
CCCc1c(COc2ccc(Cc3nnn(Cc4nnn[nH]4)n3)cc2)ccc(C(C)=O)c1O | 11.7
CCCc1c(COc2ccc(Cc3nnnn3CCCC(=O)O)cc2)ccc(C(C)=O)c1O | 57.5
CCCc1c(COc2ccc(Cc3nnn(CCCC(=O)O)n3)cc2)ccc(C(C)=O)c1O | 20

a. CCCc1c(COc2ccc(Cc3nnnn3CCCCc3nnn[nH]3)cc2)ccc(C(C)=O)c1O
b. CCCc1c(COc2ccc(Cc3nnn(CCCc4nnn[nH]4)n3)cc2)ccc(C(C)=O)c1O
c. CCCc1c(COc2ccc(Cc3nnnn3CCCCC(=O)O)cc2)ccc(C(C)=O)c1O
d. CCCc1c(COc2ccc(Cc3nnn(CCCCc4nnn[nH]4)n3)cc2)ccc(C(C)=O)c1O
Please order the records by their reported IC50, lowest number first. Write out the labels following the order that was asked for.
b, d, a, c
(b: 3.8 nM, d: 8.13 nM, a: 19.1 nM, c: 55 nM)
